biological target: Aurora kinase B (Homo sapiens, UniProt Q96GD4); test: Inhibition of full-length aurora-B (unknown origin) using 5FAMLRRASLG-CONH2 as substrate after 60 mins
Sequence (Q96GD4 whole entry): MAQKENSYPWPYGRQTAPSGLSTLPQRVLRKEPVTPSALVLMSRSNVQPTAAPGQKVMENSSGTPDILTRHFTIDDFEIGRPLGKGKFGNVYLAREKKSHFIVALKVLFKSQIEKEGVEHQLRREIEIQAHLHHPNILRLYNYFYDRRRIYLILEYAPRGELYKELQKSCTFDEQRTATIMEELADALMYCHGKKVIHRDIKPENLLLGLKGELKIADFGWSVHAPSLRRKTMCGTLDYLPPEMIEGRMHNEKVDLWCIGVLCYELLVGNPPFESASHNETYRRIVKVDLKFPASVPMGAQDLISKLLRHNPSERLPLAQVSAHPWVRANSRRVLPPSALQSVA
EXPERIMENTAL_ENDPOINT: IC50

Please review the entries below; each comes with its answer.
- Cc1nn(C)cc1-c1nc2ncc(Cl)c(Oc3ccc(C(=O)NC4CCC4)cc3)c2[nH]1: 3050 nM
- CC(=O)NCc1cccc(-c2c(-c3cnn(C)c3)[nH]c3ncc(Cl)cc23)c1: 97 nM
- Cc1nn(C)cc1-c1nc2c(N3CCC[C@H](CN(C)S(C)(=O)=O)C3)c(Cl)cnc2[nH]1: 9 nM
- Cc1nn(C)cc1-c1nc2ncc(Cl)c(Oc3ccc(C(=O)N4CCCC4)cc3)c2[nH]1: 1820 nM

Kindly state the measured IC50 obtained for Cc1nn(C)cc1-c1nc2c(N3CCC[C@H](CNS(C)(=O)=O)C3)c(Cl)cnc2[nH]1 with Aurora kinase B (Homo sapiens, UniProt Q96GD4).
8 nM

Kindly state the measured IC50 obtained for COc1ccc(-c2[nH]c3ncc(Cl)cc3c2-c2cccc(CNS(C)(=O)=O)c2)cc1 with Aurora kinase B (Homo sapiens, UniProt Q96GD4).
7100 nM

Kindly state the measured IC50 obtained for Cc1nn(C)cc1-c1nc2c(Oc3ccc(C(=O)Nc4cccnc4)cc3)c(Cl)cnc2[nH]1 with Aurora kinase B (Homo sapiens, UniProt Q96GD4).
1680 nM

Kindly state the measured IC50 obtained for CC(=O)N[C@@H]1CCN(c2c(Cl)cnc3[nH]c(-c4cn(C)nc4C)nc23)C1 with Aurora kinase B (Homo sapiens, UniProt Q96GD4).
2 nM

Kindly state the measured IC50 obtained for Cc1cc(NC(=O)c2ccc(Oc3c(Cl)cnc4nc(-c5cn(C)nc5C)[nH]c34)cc2)on1 with Aurora kinase B (Homo sapiens, UniProt Q96GD4).
693 nM

----------
system: HeLa; test: Selectivity ratio of IC50 for aurora-B-mediated histone H3 phosphorylation at S10 in human HeLa cells to IC50 for autophosphorylation of N-terminal Myc tagged aurora-A at T288 in human HeLa cells; type: cell-based
Attribute: Ratio IC50
Answer as a number with no unit attached.

Please review the entries below; each comes with its answer.
- Cc1nn(C)cc1-c1nc2c(Oc3ccc(C(=O)Nc4ccncc4)cc3)c(Cl)cnc2[nH]1: 34
- Cc1nn(C)cc1-c1nc2c(Oc3ccc(C(=O)NC4CCC4)cc3)c(Cl)cnc2[nH]1: 346
- Cc1nn(C)cc1-c1nc2c(Oc3ccc(C(=O)Nc4ccccc4)cc3)c(Cl)cnc2[nH]1: 480

Kindly state the measured Ratio IC50 obtained for Cc1nn(C)cc1-c1nc2c(Oc3ccc(C(=O)Nc4cccnc4)cc3)c(Cl)cnc2[nH]1 with HeLa.
70

----------
test: Metabolic stability in human liver microsomes at 10 uM after 30 mins; assay type: ADME
EXPERIMENTAL_ENDPOINT: metabolized at 0.5 h, 10 µM (%)
Please state the figure in %; there is no need to write the unit.

Any idea what metabolized at 0.5 h, 10 µM was measured for Cc1nn(C)cc1-c1nc2c(Oc3ccc(C(=O)Nc4ccccc4)cc3)c(Cl)cnc2[nH]1 ?
9

----------
target: Aurora kinase B (Homo sapiens); test: Inhibition of N-terminal Myc tagged aurora-B-mediated histone H3 phosphorylation at S10 in human HeLa cells after 2 hrs; assay type: cell-based
EXPERIMENTAL_ENDPOINT: IC50 (µM)
Please state the figure in µM; there is no need to write the unit.

- Cc1nn(C)cc1-c1nc2c(Oc3ccc(C(=O)Nc4ccccc4)cc3)c(Cl)cnc2[nH]1: 76.8

Any idea what IC50 was measured for Cc1nn(C)cc1-c1nc2c(Oc3ccc(C(=O)Nc4cccnc4)cc3)c(Cl)cnc2[nH]1 ?
19.7

Any idea what IC50 was measured for Cc1nn(C)cc1-c1nc2ncc(Cl)c(Oc3ccc(C(=O)Nc4ccncc4)cc3)c2[nH]1 ?
19.7

Any idea what IC50 was measured for Cc1nn(C)cc1-c1nc2ncc(Cl)c(Oc3ccc(C(=O)NC4CCC4)cc3)c2[nH]1 ?
24.2
